Listed below: fractional inhibitory concentration index (FICI) values for each entry.
- experimental system: Quinolone resistance protein NorA (Staphylococcus aureus)
- Sequence (whole entry): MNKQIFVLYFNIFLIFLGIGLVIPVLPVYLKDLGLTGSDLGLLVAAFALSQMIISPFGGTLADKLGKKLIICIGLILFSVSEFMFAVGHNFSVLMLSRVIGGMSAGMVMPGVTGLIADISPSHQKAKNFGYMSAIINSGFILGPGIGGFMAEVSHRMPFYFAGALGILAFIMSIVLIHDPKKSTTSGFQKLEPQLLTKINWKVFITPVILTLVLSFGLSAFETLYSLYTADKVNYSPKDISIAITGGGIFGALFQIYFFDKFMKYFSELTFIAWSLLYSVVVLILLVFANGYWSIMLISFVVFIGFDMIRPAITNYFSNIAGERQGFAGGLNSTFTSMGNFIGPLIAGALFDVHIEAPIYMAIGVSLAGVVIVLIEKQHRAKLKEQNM
- assay: Inhibition of NorA in Staphylococcus aureus 1199B assessed as potentiation of ethidium bromide-induced antibacterial activity by measuring fractional inhibitory concentration
Give the figure by itself; no unit, no explanation.

1. C=CCOc1ccc(C2N=C(c3ccccc3)c3cc(Cl)ccc3N2C)cc1 (centres undefined)
0.281
2. Fc1ccccc1C1=NC(c2ccco2)Nc2ccc(Cl)cc21 (centres undefined)
0.125
3. COc1ccc(C2N=C(c3ccccc3)c3ccccc3N2)cc1OC (centres undefined)
0.141
4. N#CC(C#N)=NNc1cccc(Cl)c1 [CARBONYL CYANIDE M-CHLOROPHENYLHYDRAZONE]
0.562
5. CN1c2ccc(Cl)cc2C(c2ccccc2)=NC1c1ccc([N+](=O)[O-])cc1 (centres undefined)
0.25
6. c1ccc(C2=NC(c3ccccc3)Nc3ccccc32)cc1 (centres undefined)
0.31
7. CN1c2ccc(Cl)cc2C(c2ccccc2)=NC1c1ccccc1 (centres undefined)
0.266
8. CN1c2ccc(Cl)cc2C(c2ccccc2)=NC1c1ccc(Br)cc1 (centres undefined)
0.187

Turning now to a further record.
Reported fractional inhibitory concentration index (FICI) of Brc1ccc(C2=NC(c3ccc(Br)cc3)Nc3ccccc32)cc1 (centres undefined) : 0.266

* * *

- experimental system: Quinolone resistance protein NorA (Staphylococcus aureus) (UniProt P0A0J7)
- assay: Inhibition of NorA in Staphylococcus aureus 1199B assessed as potentiation of norfloxacin-induced antibacterial activity by measuring fractional inhibitory concentration
quantity name: fractional inhibitory concentration index (FICI)

// below: answered molecules
1) COc1ccc(C2N=C(c3ccccc3)c3ccccc3N2)cc1OC (centres undefined)
0.078
2) CN1c2ccc(Cl)cc2C(c2ccccc2)=NC1c1ccccc1 (centres undefined)
0.141
3) CN1c2ccc(Cl)cc2C(c2ccccc2)=NC1c1ccc([N+](=O)[O-])cc1 (centres undefined)
0.141
4) c1ccc(C2=NC(c3ccccc3)Nc3ccccc32)cc1 (centres undefined)
0.078
5) Brc1ccc(C2=NC(c3ccc(Br)cc3)Nc3ccccc32)cc1 (centres undefined)
0.078
6) CN1c2ccc(Cl)cc2C(c2ccccc2)=NC1c1ccc(Br)cc1 (centres undefined)
0.141
7) C=CCOc1ccc(C2N=C(c3ccccc3)c3cc(Cl)ccc3N2C)cc1 (centres undefined)
0.141
8) N#CC(C#N)=NNc1cccc(Cl)c1 [CARBONYL CYANIDE M-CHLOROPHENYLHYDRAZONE]
0.625

# ---- query molecule ----
The molecule listed as Fc1ccccc1C1=NC(c2ccco2)Nc2ccc(Cl)cc21 (centres undefined) shows fractional inhibitory concentration index (FICI) equal to 0.078

* * *

- System: Staphylococcus aureus
- assay: Antibacterial activity against Staphylococcus aureus 1199 measured after 24 hrs by Muller Hinton broth based MTT assay
- Assay type: functional
quantity name: log10 of MIC (log10 of the value in mg/L)
Would you kindly interpret these values as log10 of MIC expressed in mg/L?

// known answers, use as guide
1. C=CCOc1ccc(C2N=C(c3ccccc3)c3ccccc3N2)cc1 (stereo not given)
2.10
2. CN[C@@H]1[C@H](O[C@H]2[C@H](O[C@H]3[C@H](O)[C@@H](O)[C@H](N=C(N)N)[C@@H](O)[C@@H]3N=C(N)N)O[C@@H](C)[C@]2(O)C=O)O[C@@H](CO)[C@H](O)[C@H]1O
0.23
3. Fc1ccccc1C1=NC(c2ccccc2)Nc2ccc(Cl)cc21 (stereo not given)
1.80
4. Cc1onc(-c2ccccc2)c1C(=O)N[C@@H]1C(=O)N2[C@@H]1SC(C)(C)[C@@H]2C(=O)O
-1.00

log10 of MIC reading for CN[C@H](CC(C)C)C(=O)N[C@H]1C(=O)N[C@@H](CC(N)=O)C(=O)N[C@H]2C(=O)N[C@H]3C(=O)N[C@H](C(=O)N[C@H](C(=O)O)c4cc(O)cc(O)c4-c4cc3ccc4O)[C@H](O)c3ccc(c(Cl)c3)Oc3cc2cc(c3O[C@@H]2O[C@H](CO)[C@@H](O)[C@H](O)[C@H]2O[C@H]2C[C@](C)(N)[C@H](O)[C@H](C)O2)Oc2ccc(cc2Cl)[C@H]1O : -0.38

* * *

- experimental system: Quinolone resistance protein NorA (Staphylococcus aureus)
- assay: Inhibition of NorA in Staphylococcus aureus 1199B assessed as potentiation of norfloxacin-induced antibacterial activity by measuring Norfloxacin MIC at sub MIC
quantity name: MIC (mg/L)
Numbers only here, please. The scale is mg/L.

Example results:
1. CN1c2ccc(Cl)cc2C(c2ccccc2)=NC1c1ccc(Br)cc1 (stereo not given)
6.2
2. CN1c2ccc(Cl)cc2C(c2ccccc2)=NC1c1ccccc1 (stereo not given)
6.2
3. COc1ccc(CCN(C)CCCC(C#N)(c2ccc(OC)c(OC)c2)C(C)C)cc1OC (stereo not given)
12.5
4. C=CCOc1ccc(C2N=C(c3ccccc3)c3cc(Cl)ccc3N2C)cc1 (stereo not given)
6.2

The reported value for c1ccc(C2=NC(c3ccccc3)Nc3ccccc32)cc1 (stereo not given) in terms of MIC is 3.1

For reference, reported MIC for COc1ccc(C2N=C(c3ccccc3)c3ccccc3N2)cc1OC (stereo not given) stands at 3.1

Measured MIC, Brc1ccc(C2=NC(c3ccc(Br)cc3)Nc3ccccc32)cc1 (stereo not given) : 3.1

Notebook: CN1c2ccc(Cl)cc2C(c2ccccc2)=NC1c1ccc([N+](=O)[O-])cc1 (stereo not given) , MIC read as 6.2

Entry N#CC(C#N)=NNc1cccc(Cl)c1 [CARBONYL CYANIDE M-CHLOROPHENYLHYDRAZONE] — recorded MIC = 6.2

Short answer for Fc1ccccc1C1=NC(c2ccco2)Nc2ccc(Cl)cc21 (stereo not given) : MIC was 3.1

* * *

- experimental system: Quinolone resistance protein NorA (Staphylococcus aureus) (UniProt P0A0J7)
- Sequence (whole entry): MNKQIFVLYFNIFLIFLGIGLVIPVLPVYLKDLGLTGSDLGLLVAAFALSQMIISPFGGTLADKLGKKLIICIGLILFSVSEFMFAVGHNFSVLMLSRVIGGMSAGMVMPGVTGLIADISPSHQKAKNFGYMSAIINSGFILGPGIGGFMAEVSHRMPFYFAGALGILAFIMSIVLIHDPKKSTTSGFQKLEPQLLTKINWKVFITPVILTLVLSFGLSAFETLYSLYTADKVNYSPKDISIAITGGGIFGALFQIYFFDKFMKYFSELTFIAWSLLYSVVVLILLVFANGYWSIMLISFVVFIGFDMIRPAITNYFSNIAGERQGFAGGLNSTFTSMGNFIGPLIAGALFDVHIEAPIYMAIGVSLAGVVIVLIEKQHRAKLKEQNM
- assay: Inhibition of NorA in Staphylococcus aureus 1199B assessed as potentiation of norfloxacin-induced antibacterial activity by measuring Norfloxacin MIC at sub MIC relative to norfloxacin MIC alone
Measured fold change (FC) accompanies every entry in the list below.
# output: bare number, no unit

1. CN1c2ccc(Cl)cc2C(c2ccccc2)=NC1c1ccc(Br)cc1 (stereo not given)
8
2. CN1c2ccc(Cl)cc2C(c2ccccc2)=NC1c1ccccc1 (stereo not given)
8
3. COc1ccc(C2N=C(c3ccccc3)c3ccccc3N2)cc1OC (stereo not given)
16
4. COc1ccc(CCN(C)CCCC(C#N)(c2ccc(OC)c(OC)c2)C(C)C)cc1OC (stereo not given)
4
5. Fc1ccccc1C1=NC(c2ccco2)Nc2ccc(Cl)cc21 (stereo not given)
16
6. C=CCOc1ccc(C2N=C(c3ccccc3)c3cc(Cl)ccc3N2C)cc1 (stereo not given)
8
7. Brc1ccc(C2=NC(c3ccc(Br)cc3)Nc3ccccc32)cc1 (stereo not given)
16
8. N#CC(C#N)=NNc1cccc(Cl)c1 [CARBONYL CYANIDE M-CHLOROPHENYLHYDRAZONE]
8
9. c1ccc(C2=NC(c3ccccc3)Nc3ccccc32)cc1 (stereo not given)
16

Would you kindly look at the next entry?
What the record says about CN1c2ccc(Cl)cc2C(c2ccccc2)=NC1c1ccc([N+](=O)[O-])cc1 (stereo not given) : fold change (FC) is 8

* * *

- experimental system: Quinolone resistance protein NorA (Staphylococcus aureus) (UniProt P0A0J7)
- assay: Inhibition of NorA in Staphylococcus aureus 1199B assessed as accumulation of ethidium bromide at 3.9 ug/ml by measuring fluorescence intensity measured at 5 mins interval for 40 mins by fluorescence spectrophotometry
- measurement conditions: dose 3.9 µg/ml
quantity name: Flu intensity
// return just the number, without any unit appended

Briefly, Flu intensity measured for CN1c2ccc(Cl)cc2C(c2ccccc2)=NC1c1ccc(Br)cc1 (stereo not drawn) : 70.6

Lab note: c1ccc(C2=NC(c3ccccc3)Nc3ccccc32)cc1 (stereo not drawn) gave Flu intensity of 96.1

Input Fc1ccccc1C1=NC(c2ccco2)Nc2ccc(Cl)cc21 (stereo not drawn) . Output Flu intensity: 248

Summary for this molecule, C=CCOc1ccc(C2N=C(c3ccccc3)c3cc(Cl)ccc3N2C)cc1 (stereo not drawn) : Flu intensity is 173

# molecule CN1c2ccc(Cl)cc2C(c2ccccc2)=NC1c1ccc([N+](=O)[O-])cc1 (stereo not drawn) ; its Flu intensity = 100

Memo: CN1c2ccc(Cl)cc2C(c2ccccc2)=NC1c1ccccc1 (stereo not drawn) , reported Flu intensity: 143

The molecule listed as Brc1ccc(C2=NC(c3ccc(Br)cc3)Nc3ccccc32)cc1 (stereo not drawn) has a reported Flu intensity of 127

Memo: COc1ccc(C2N=C(c3ccccc3)c3ccccc3N2)cc1OC (stereo not drawn) , reported Flu intensity: 86
